Provenance of the data: the supplement of paper PMC10567573

Please provide measured protein stability index for the entries that follow.
B1: ZNF649 (parent)
chain: EHERAHRGEKPHGCSLCGKAFYKR

Variants of: B1
Test Details: protein stability index of a GFP-peptide fusion (GPS, HEK-293T) (PSI 1-6); higher = more stable;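 note: lentivirally expressed fusions sorted by FACS into six bins by GFP to DsRed ratio, PSI derived from sequencing read proportions per bin multiplied by bin number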
Measurement Context: c terminus: a fixed tail appended
One number for each entry.

Mutant Id	Endpoint Value
H12C	1.46
E1H	1.86
G13N	2.89

Hello, I would appreciate it if you could give protein stability index for each entry below.
1. K23H
2. K23G
3. A5G
4. G18M
5. E3D
6. R7P

1: 1.83; 2: 2.65; 3: 1.52; 4: 1.72; 5: 2.01; 6: 2.63
